tested on: L1210 leukemia ip in BDF1 mice, survival T/C; assay: NCI In Vivo Anticancer Drug Screen. Data for tumor model L1210 Leukemia (intraperitoneal) in B6D2F1 (BDF1) mice; settings: endpoint: mean survival time; dose: 12.5 mg/kg/injection; schedule: Q01DX009 (ip); vehicle: saline; higher = longer survival
Inconclusive results and toxic doses are left out.
ASSAY_READOUT: T/C

Reference set, count: 4
COMPOUND | MEASURED_RESULT
COC(=O)C1=C(C(=O)OC)[C@H]2O[C@H]1[C@@H]1O[C@@H]12 | 100 % of control
NNC(=O)c1cccnc1 | 94 % of control
Cc1ccc(S(=O)(=O)O)cc1 | 101 % of control
ClC1=C(Cl)C(Cl)(Cl)C(Cl)(Cl)C1(Cl)Cl | 99 % of control

Suppose we examine the compound CC1CC[N+]2(C)CCCC12 (centres undefined) ; what T/C value has been reported?
100 % of control

And then NC(CSC(c1ccccc1)(c1ccccc1)c1ccc2ccccc2c1)C(=O)O (centres undefined) , what is it?
108 % of control

Also check OCC1OC(Nc2ncnc3c2ncn3C2OC(CO)C(O)C2O)C(O)C1O (centres undefined)
100 % of control

Item: CCCC[P+](c1ccccc1)(c1ccccc1)c1ccccc1
113 % of control

Same for Cc1ccc(S(=O)(=O)OCCN2C(=O)NC(c3ccccc3)(c3ccccc3)C2=O)cc1
104 % of control

meta.source: PubChem BioAssay AID248
